Assignment: determine reported logD for the given molecules.
Assay remarks: physchem
Experimental parameters: octanol/water
Description: Partition coefficient (logD) (HPLC)
Numbers only.

Please review the following examples before continuing.
CNCCC=C1c2ccccc2CCc2ccccc21 :: 2.04
CCN(CC)CCOc1ccc2c(c1)C(=O)c1cc(OCCN(CC)CC)ccc1-2 :: 1.44
CN1CCCCC1CCN1c2ccccc2Sc2ccc([S+](C)[O-])cc21 (stereo unspecified) :: 1.84
CN(C)CCC=C1c2ccccc2COc2ccccc21 [DOXEPIN] :: 2.36
CN(C)CCC(c1ccc(Cl)cc1)c1ccccn1 (stereo unspecified) :: 1.53

Consider the additional molecule presented here.
[Q] Read the entry Cc1cccc(C)c1NC(=O)C1CCCCN1C (stereo unspecified) [MEPIVACAINE] and write its reported logD.
[A] 1.22
